Measured inhibition, listed per entry for reference.
assay: Mycobacterium tuberculosis growth inhibition, primary screen (AID 1259343); details: at 10 µM, hits give high values
The whole screen tested about 6,200 compounds, of which about 2,900 (47%) were called active. The set was probably picked from earlier hits. The list shows a part of the results.
The answer is to be given in %; state only the numeric part.

{"Molecule": "Cc1oc(=O)oc1CN1CCN(c2cc3c(cc2F)c(=O)c(C(=O)O)c2n3C(C)S2)CC1 (centres undefined)", "Assay readout": "inhibition", "Endpoint unit": "%", "Value observed": 96.9}
{"Molecule": "COCCCCC(=O)Nc1cc(C(F)(F)F)[nH]n1", "Assay readout": "inhibition", "Endpoint unit": "%", "Value observed": 78}

# query: inhibition of entry CCn1c(=S)[nH]c2scc(-c3cccs3)c2c1=O
98.8

Quick one: Cc1ccc2c(CC(=O)NC(C)C3CC4CCC3C4)coc2c1 (centres undefined)
12.9

// repeat for COc1ccc(Cc2n[nH]c(=S)o2)cc1 and report
101
